Tested on: E. coli ATCC 10536
Experiment: MBC by Miles-Misra drop-plate method, E. coli
Assay type: cell-based
Details: Escherichia coli, ATCC10536, read-out: E. coli ATCC 10536 MBC, Zinc (50 μM)
Counter-ions that a name gives are not always drawn.
Reported MBC values are given for each entry in this list.
The answer is to be given in µg/mL; state only the numeric part.

Some solved entries appear below for comparison.
CN(C)CCCNC(=O)c1ccc2cccc(NS(=O)(=O)c3ccc(C(F)(F)F)cc3)c2n1 [ZDR224, trifluoroacetate]: 256
O=S(=O)(Nc1cccc2ccc(CNCCCN3CCCCC3)nc12)c1ccc(C(F)(F)F)cc1 [ZDR115, di-trifluoroacetate]: 16

Now for a further compound.
Query MBC on E. coli ATCC 10536 for CN1CCN(CCCNCc2ccc3cccc(NS(=O)(=O)c4ccc(C(F)(F)F)cc4)c3n2)CC1 [ZDR117, di-trifluoroacetate]
64

* * *

System: S. aureus ATCC 6538
Test: MIC by broth microdilution, S. aureus
Assay type: cell-based
Settings: Staphylococcus aureus, ATCC6538, No Zinc; read-out: S. aureus ATCC 6538 MIC
Reported log10(MIC) values are given for each entry in this list.
Recorded MIC (log10, µg/mL)

O=S(=O)(Nc1cccc2ccc(CN(CCO)CCO)nc12)c1ccc(C(F)(F)F)cc1 [ZDR094]: 1.79
CCCN(CCC)Cc1ccc2cccc(NS(=O)(=O)c3ccc(C(F)(F)F)cc3)c2n1 [ZDR409]: 1.81
O=S(=O)(Nc1cccc2ccc(CNCCO)nc12)c1ccc(C(F)(F)F)cc1 [ZDR031]: 1.51
CN(C)Cc1ccc2cccc(NS(=O)(=O)c3cccc([N+](=O)[O-])c3)c2n1 [ZDR313]: 2.11
CN(C)Cc1ccc2cccc(NS(=O)(=O)c3cccc(OC(F)(F)F)c3)c2n1 [ZDR085]: 2.41

Query log10(MIC) on S. aureus ATCC 6538 for CC(C)(C)OC(=O)CNCc1ccc2cccc(NS(=O)(=O)c3ccc(C(F)(F)F)cc3)c2n1 [ZDR041]
1.81

O=S(=O)(Nc1cccc2ccc(CO)nc12)c1ccc(C(F)(F)F)cc1 [ZDR176] , same question.
0.60

O=C(N/N=C/c1ccc2cccc(NS(=O)(=O)c3ccc(C(F)(F)F)cc3)c2n1)C1CCCNC1 (mixture of isomers) [ZDR124] , same question.
1.20

CCC(C)NCc1ccc2cccc(NS(=O)(=O)c3ccc(C(F)(F)F)cc3)c2n1 (stereo not drawn) [ZDR402] , same question.
1.51

CCCCNCc1ccc2cccc(NS(=O)(=O)c3ccc(C(F)(F)F)cc3)c2n1 [ZDR401] , same question.
1.51

* * *

System: S. aureus ATCC 6538
Experiment: MIC by broth microdilution, S. aureus
Type: cell-based
Settings: Staphylococcus aureus, ATCC6538, No Zinc; read-out: S. aureus ATCC 6538 MIC
Please note: MIC exactly at 30 µg/mL is criterion not met. Only values below 30 µg/mL get criterion met.

Completed entries (count: 10):
CCN(CC)Cc1ccc2cccc(NS(=O)(=O)c3ccc(C(F)(F)F)cc3)c2n1: criterion not met
O=S(=O)(Nc1cccc2ccc(CNCC(O)CO)nc12)c1ccc(C(F)(F)F)cc1 (stereo not drawn): criterion not met
CN(C)Cc1ccc2cccc(NS(=O)(=O)c3ccc(SC(F)(F)F)cc3)c2n1: criterion not met
O=S(=O)(Nc1cccc2ccc(/C=N/OCc3ccccc3)nc12)c1ccc(C(F)(F)F)cc1: criterion not met
CN(CCN(C)Cc1ccc2cccc(NS(=O)(=O)c3ccc(C(F)(F)F)cc3)c2n1)Cc1ccc2cccc(NS(=O)(=O)c3ccc(C(F)(F)F)cc3)c2n1: criterion not met
O=S(=O)(Nc1cccc2ccc(/C=N/O)nc12)c1ccc(C(F)(F)F)cc1: criterion met
Cc1cccc(S(=O)(=O)Nc2cccc3ccc(CN(C)C)nc23)c1: criterion not met
CN(C)Cc1ccc2cccc(NS(=O)(=O)Cc3ccc(C(F)(F)F)cc3)c2n1: criterion not met
O=C(N/N=C/c1ccc2cccc(NS(=O)(=O)c3ccc(C(F)(F)F)cc3)c2n1)c1cccnc1: criterion met
CN(C)Cc1ccc2cccc(NS(=O)(=O)c3ccc(Cl)cc3Cl)c2n1: criterion not met

Threshold test, MIC < 30 µg/mL: `CCCNCc1ccc2cccc(NS(=O)(=O)c3ccc(C(F)(F)F)cc3)c2n1`
criterion not met

`CN(C)Cc1ccc2cccc(NS(=O)(=O)c3ccsc3)c2n1` , same question.
criterion not met

`CN(C)Cc1ccc2cccc(NS(=O)(=O)C3CCOCC3)c2n1` , same question.
criterion not met

`CN(C)Cc1ccc2cccc(NS(=O)(=O)c3ccccc3)c2n1` , same question.
criterion not met

`CN(C)Cc1ccc2cccc(NS(=O)(=O)c3ccc(NC(=O)OC(C)(C)C)cc3)c2n1` , same question.
criterion not met

`O=S(=O)(Nc1cccc2ccc(CN3CCSCC3)nc12)c1ccc(C(F)(F)F)cc1` , same question.
criterion not met

`CC(=O)N/N=C/c1ccc2cccc(NS(=O)(=O)c3ccc(C(F)(F)F)cc3)c2n1` , same question.
criterion met

`NC(=S)N/N=C/c1ccc2cccc(NS(=O)(=O)c3ccc(C(F)(F)F)cc3)c2n1` , same question.
criterion met

* * *

System: E. coli ATCC 10596
Experiment: MIC by broth microdilution, E. coli
Format: cell-based
Conditions: Escherichia coli, ATCC 10536 / ATCC 10596, Zinc (50 μM); read-out: E. coli ATCC 10536 MIC
Experimental: Antibacterial susceptibility testing was performed in triplicate (biological) by measuring minimum inhibitory concentrations (MICs) by broth microdilution in 96-well flat bottom microtiter plates (ThermoFisher Scientific, New Zealand). […] After 24 h incubation at 37° C. and 200 rpm, the OD600 of wells were read using a Varioskan Flash plate reader (ThermoFisher Scientific, New Zealand). […]
Reported MIC values are given for each entry in this list.

Some solved entries appear below for comparison.
O=S(=O)(Nc1cccc2ccc(CNCCN3CCOCC3)nc12)c1ccc(C(F)(F)F)cc1: > 256 µg/mL
O=S(=O)(NCc1ccc2cccc(NS(=O)(=O)c3ccc(C(F)(F)F)cc3)c2n1)c1ccccc1: > 256 µg/mL
CN/N=C/c1ccc2cccc(NS(=O)(=O)c3ccc(C(F)(F)F)cc3)c2n1: > 256 µg/mL
COc1cccc(S(=O)(=O)Nc2cccc3ccc(CN(C)C)nc23)c1: > 256 µg/mL
CN(C)Cc1ccc2cccc(NS(=O)(=O)c3ccc(C(F)(F)F)cc3)c2n1: > 256 µg/mL
O=S(=O)(Nc1cccc2ccc(CNc3ccccn3)nc12)c1ccc(C(F)(F)F)cc1: > 256 µg/mL
CN(C)Cc1ccc2cccc(NS(=O)(=O)c3ccc(F)c(F)c3)c2n1: > 256 µg/mL
COCCOCCOCCNCc1ccc2cccc(NS(=O)(=O)c3ccc(C(F)(F)F)cc3)c2n1: 256 µg/mL

Now for a further molecule.
Value lookup for MIC; key = `CCNCc1ccc2cccc(NS(=O)(=O)c3ccc(C(F)(F)F)cc3)c2n1`
≥ 256 µg/mL

* * *

System: S. aureus ATCC 6538
Assay: MBC by Miles-Misra drop-plate method, S. aureus
Type: cell-based
Conditions: Staphylococcus aureus, ATCC6538, Zinc (50 μM); read-out: S. aureus ATCC 6538 MBC
Measured endpoint: MBC (µg/mL)
The answer is to be given in µg/mL; state only the numeric part.

O=S(=O)(Nc1cccc2ccc(CNC(CO)CO)nc12)c1ccc(C(F)(F)F)cc1: 32

Value lookup for MBC; key = `O=C(N/N=C/c1ccc2cccc(NS(=O)(=O)c3ccc(C(F)(F)F)cc3)c2n1)c1cccnc1`
256

* * *

Reported MIC values are given for each entry in this list.
Tested on: S. aureus ATCC 6538
Assay: MIC by broth microdilution, S. aureus
Format: cell-based
Details: Staphylococcus aureus, ATCC6538, No Zinc; read-out: S. aureus ATCC 6538 MIC
The answer is to be given in µg/mL; state only the numeric part.

O=S(=O)(Nc1cccc2ccc(/C=N/NCc3ccccc3)nc12)c1ccc(C(F)(F)F)cc1 [ZDR138]: 128
O=C(N/N=C/c1ccc2cccc(NS(=O)(=O)c3ccc(C(F)(F)F)cc3)c2n1)c1ccncc1 [ZDR122]: 16
O=S(=O)(Nc1cccc2ccc(CNc3ccccc3)nc12)c1ccc(C(F)(F)F)cc1 [ZDR108]: 64
O=S(=O)(Nc1cccc2ccc(CNCCN3CCCCC3)nc12)c1ccc(C(F)(F)F)cc1 [ZDR111]: 16
O=S(=O)(Nc1cccc2ccc(CNCCF)nc12)c1ccc(C(F)(F)F)cc1 [ZDR099]: 64
CS(=O)(=O)NCCNCc1ccc2cccc(NS(=O)(=O)c3ccc(C(F)(F)F)cc3)c2n1 [ZDR180]: 64

Now for a further molecule.
Value lookup for MIC; key = Cc1ccc(S(=O)(=O)Nc2cccc3ccc(CN(C)C)nc23)cc1 [ZDR062]
256

* * *

Test system: S. aureus ATCC 6538
Assay: MIC by broth microdilution, S. aureus
Format: cell-based
Conditions: Staphylococcus aureus, ATCC6538, No Zinc; read-out: S. aureus ATCC 6538 MIC
Reported MIC values are given for each entry in this list.
The answer is to be given in µg/mL; state only the numeric part.

Some solved entries appear below for comparison.
O=S(=O)(Nc1cccc2ccc(CNCc3ccccc3)nc12)c1ccc(C(F)(F)F)cc1: 128
O=S(=O)(Nc1cccc2ccc(CNCC3CC3)nc12)c1ccc(C(F)(F)F)cc1: 128
CN(C)Cc1ccc2cccc(NS(=O)(=O)c3ccc(Cl)cc3)c2n1: 128
CN/N=C/c1ccc2cccc(NS(=O)(=O)c3ccc(C(F)(F)F)cc3)c2n1: 64
NC(=O)N/N=C/c1ccc2cccc(NS(=O)(=O)c3ccc(C(F)(F)F)cc3)c2n1: 128

Now for a further molecule.
Value lookup for MIC; key = `O=S(=O)(Nc1cccc2ccc(CNCc3cccnc3)nc12)c1ccc(C(F)(F)F)cc1`
64
